# assay-explanation: Pharmacokinetics of compound (Ib) in rat, intravenous, plasma by HPLC
# Assay type: in vivo, rat (Fischer)
# details: plasma, iv; rat (Fischer), i.v. 14.29 mg/kg, average of four rats, 10 min
assay-metric: concentration at 10 min (ng/mL)

{"compound": "Nc1nc(/C(=N/OCc2ccco2)C(=O)NC2C(=O)N3C(C(=O)[O-])=C(C[n+]4ccccc4)CSC23)cs1 (stereo not shown)", "assay-metric": "concentration at 10 min", "numeric-value": 43000}

###

# assay-explanation: Pharmacokinetics of compound (Ib) in rat, intravenous, plasma by HPLC
# Assay type: in vivo, rat (Fischer)
# details: rat, plasma, iv, 14.29 mg/kg, rat (Fischer), i.v. 14.29 mg/kg, II Compartment; read-out: T1/2 (β)
assay-metric: half-life (h)

{"compound": "Nc1nc(/C(=N/OCc2ccco2)C(=O)NC2C(=O)N3C(C(=O)[O-])=C(C[n+]4ccccc4)CSC23)cs1 (stereo not shown)", "unit-text": "h", "numeric-value": 1.58}
